Conditions: in isopropanol, 298.15 K
ASSAY READOUT: solubility (mole fraction)

Problem: Data request, read-out solubility (mole fraction), for CC(=O)Oc1ccccc1C(=O)O
Result: 0.0523

* * *

Details: in n-pentanol, 298.15 K
ASSAY READOUT: solubility (mole fraction)
One number for each entry.

Problem: Data request, read-out solubility (mole fraction), for CC(=O)Oc1ccccc1C(=O)O
Result: 0.0397

* * *

Settings: in n-pentyl acetate, 298.15 K
ASSAY READOUT: solubility (mole fraction)

Problem: Data request, read-out solubility (mole fraction), for CC(=O)Oc1ccccc1C(=O)O
Result: 0.0268

* * *

Conditions: in diethyl ether, 298.15 K
ASSAY READOUT: solubility (mole fraction)
One number for each entry.

Problem: Data request, read-out solubility (mole fraction), for CC(=O)Oc1ccccc1C(=O)O
Result: 0.0353

* * *

Conditions: in sec-butanol, 298.15 K
ASSAY READOUT: solubility (mole fraction)
Give bare numbers.

Problem: Data request, read-out solubility (mole fraction), for CC(=O)Oc1ccccc1C(=O)O
Result: 0.0536

* * *

Details: in n-butyl acetate, 298.15 K
ASSAY READOUT: solubility (mole fraction)
Numbers only.

Problem: Data request, read-out solubility (mole fraction), for CC(=O)Oc1ccccc1C(=O)O
Result: 0.0335

* * *

Settings: in MTBE, 298.15 K
ASSAY READOUT: solubility (mole fraction)
Numbers only.

Problem: Data request, read-out solubility (mole fraction), for CC(=O)Oc1ccccc1C(=O)O
Result: 0.0401

* * *

Conditions: in 3,7-dimethyl-1-octanol, 298.15 K
ASSAY READOUT: solubility (mole fraction)
One number for each entry.

Problem: Data request, read-out solubility (mole fraction), for CC(=O)Oc1ccccc1C(=O)O
Result: 0.0304

* * *

Settings: in n-octanol, 298.15 K
ASSAY READOUT: solubility (mole fraction)
One number for each entry.

Problem: Data request, read-out solubility (mole fraction), for CC(=O)Oc1ccccc1C(=O)O
Result: 0.0358

* * *

Settings: in n-hexanol, 298.15 K
ASSAY READOUT: solubility (mole fraction)

Problem: Data request, read-out solubility (mole fraction), for CC(=O)Oc1ccccc1C(=O)O
Result: 0.0397

* * *

Conditions: in ethyl acetate, 298.15 K
ASSAY READOUT: solubility (mole fraction)
One number for each entry.

Problem: Data request, read-out solubility (mole fraction), for CC(=O)Oc1ccccc1C(=O)O
Result: 0.0458

* * *

Settings: in 2-pentanol, 298.15 K
ASSAY READOUT: solubility (mole fraction)
Give bare numbers.

Problem: Data request, read-out solubility (mole fraction), for CC(=O)Oc1ccccc1C(=O)O
Result: 0.0435

* * *

Settings: in methyl acetate, 298.15 K
ASSAY READOUT: solubility (mole fraction)
Answers are plain numbers.

Problem: Data request, read-out solubility (mole fraction), for CC(=O)Oc1ccccc1C(=O)O
Result: 0.0529

* * *

Details: in n-butanol, 298.15 K
ASSAY READOUT: solubility (mole fraction)
Give bare numbers.

Problem: Data request, read-out solubility (mole fraction), for CC(=O)Oc1ccccc1C(=O)O
Result: 0.0462

* * *

Conditions: in n-decanol, 298.15 K
ASSAY READOUT: solubility (mole fraction)

Problem: Data request, read-out solubility (mole fraction), for CC(=O)Oc1ccccc1C(=O)O
Result: 0.0365

* * *

Settings: in 4-methyl-2-pentanol, 298.15 K
ASSAY READOUT: solubility (mole fraction)
Numbers only.

Problem: Data request, read-out solubility (mole fraction), for CC(=O)Oc1ccccc1C(=O)O
Result: 0.0393
